Test: Solubility in simulated gastric/intestinal fluids and pH media
Type: physicochemical
Conditions: pH 6, aqueous buffer, thermodynamic from solid, pH 6.0, 24 hr
metric-name: solubility at 24 h (µg/mL)
Give bare numbers, in µg/mL.

What the record says about Cc1c(F)cccc1NC(=O)Nc1ccc(Cl)c(S(=O)(=O)[C@H]2CCCNC2)c1O [Micronised free base, reference compound] : solubility at 24 h is 4

====

Assay: Solubility in simulated gastric/intestinal fluids and pH media
Assay type: physicochemical
Settings: fasted-state simulated intestinal fluid (Phares FaSSIF), pH 6.5, fassif, thermodynamic from solid, Batch 2, Phares FaSSif pH 6.5, 4 hr
Structures can show the parent of a compound that is named as a salt.
metric-name: solubility at 4 hr (µg/mL)
One number for each entry, in µg/mL.

The recorded solubility at 4 hr for entry Cc1c(F)cccc1NC(=O)Nc1ccc(Cl)c(S(=O)(=O)[C@H]2CCCNC2)c1O [HBr Salt] equals 379
